Values were extracted from patent US20260001854A1.

Experiment: MTT cell viability (cytotoxicity) assay, A549
Type: cell-based
Settings: human, A549 cells; 13-cis RA 960 μM
assay_endpoint: viability at 24 h, 960 μM (%)
Answers are plain numbers, in %.

Record request: viability at 24 h, 960 μM value, item CC1=C(/C=C/C(C)=C/C=C/C(C)=C\C(=O)O)C(C)(C)CCC1 [13-cis retinoic acid, reference compound] 51

====

Experiment: MTT cell viability (cytotoxicity) assay, A549
Assay type: cell-based, human
Conditions: human, A549 cells; Formula A1 150 μM, 24 hours, MTT, mean of 6 wells
assay_endpoint: viability at 24 h, 150 μM
Record the result as number plus unit.

Query: viability at 24 h, 150 μM; subject: CC1=C(/C=C/C(C)=C/C=C/C(C)=C\C(=O)OC2=C(O)[C@@H]([C@@H](O)CO)OC2=O)C(C)(C)CCC1 80%

====

Experiment: MTT cell viability (cytotoxicity) assay, Caco-2
Format: cell-based
Details: human, 400 μM, mean of 6 wells
assay_endpoint: viability at 24 h, 400 µM (%)
Numbers only, in %.

Consider the compound CC1=C(/C=C/C(C)=C/C=C/C(C)=C\C(=O)OC2=C(O)[C@@H]([C@@H](O)CO)OC2=O)C(C)(C)CCC1 [Formula A1] and give its measured viability at 24 h, 400 µM. 33

====

Test: MTT cell viability (cytotoxicity) assay, A549
Type: cell-based, human
Details: human, A549 cells; Formula A1 230 μM, 24 hours, MTT, mean of 6 wells
assay_endpoint: viability at 24 h, 230 μM (%)
Numbers only, in %.

Given the entry CC1=C(/C=C/C(C)=C/C=C/C(C)=C\C(=O)OC2=C(O)[C@@H]([C@@H](O)CO)OC2=O)C(C)(C)CCC1 [Formula A1] , report its measured viability at 24 h, 230 μM. 63

====

Experiment: MTT cell viability (cytotoxicity) assay, Caco-2
Assay type: cell-based
Settings: human, 500 μM, mean of 6 wells
assay_endpoint: viability at 24 h, 500 µM

Request the reported viability at 24 h, 500 µM associated with CC1=C(/C=C/C(C)=C/C=C/C(C)=C\C(=O)OC2=C(O)[C@@H]([C@@H](O)CO)OC2=O)C(C)(C)CCC1 [Formula A1] 24%

====

Experiment: MTT cell viability (cytotoxicity) assay, A549
Format: cell-based, human
Conditions: human, A549 cells; 13-cis RA 120 μM
assay_endpoint: viability at 24 h, 120 μM (%)
Give bare numbers, in %.

What does the data say about its viability at 24 h, 120 μM? Entry: CC1=C(/C=C/C(C)=C/C=C/C(C)=C\C(=O)O)C(C)(C)CCC1 [13-cis retinoic acid, reference compound] 57

====

Experiment: MTT cell viability (cytotoxicity) assay, A549
Format: cell-based, human
Conditions: human, A549 cells; 13-cis RA 60 μM
assay_endpoint: viability at 24 h, 60 μM (%)
Give bare numbers, in %.

Find the recorded viability at 24 h, 60 μM belonging to CC1=C(/C=C/C(C)=C/C=C/C(C)=C\C(=O)O)C(C)(C)CCC1 [13-cis retinoic acid, reference compound] and report it. 73

====

Experiment: MTT cell viability (cytotoxicity) assay, PANC-1
Type: cell-based
Conditions: human, PANC-1 cells, 150 μM, mean of 6 wells
assay_endpoint: viability at 24 h, 150 μM (%)
One number for each entry, in %.

Give its viability at 24 h, 150 μM value. Item: CC1=C(/C=C/C(C)=C/C=C/C(C)=C\C(=O)OC2=C(O)[C@@H]([C@@H](O)CO)OC2=O)C(C)(C)CCC1 50

====

Assay: MTT cell viability (cytotoxicity) assay, A549
Type: cell-based
Details: human, A549 cells; 13-cis RA 15 μM
assay_endpoint: viability at 24 h, 15 μM (%)
One number for each entry, in %.

Quick check: viability at 24 h, 15 μM of CC1=C(/C=C/C(C)=C/C=C/C(C)=C\C(=O)O)C(C)(C)CCC1 [13-cis retinoic acid, reference compound] ? 78

====

Test: MTT cell viability (cytotoxicity) assay, A549
Format: cell-based, human
Conditions: human, A549 cells; Formula A1 180 μM, 24 hours, MTT, mean of 6 wells
assay_endpoint: viability at 24 h, 180 μM (%)
Answers are plain numbers, in %.

Form field: reported viability at 24 h, 180 μM of CC1=C(/C=C/C(C)=C/C=C/C(C)=C\C(=O)OC2=C(O)[C@@H]([C@@H](O)CO)OC2=O)C(C)(C)CCC1 29

====

Assay: MTT cell viability (cytotoxicity) assay, PANC-1
Assay type: cell-based
Conditions: human, PANC-1 cells, 180 μM, mean of 6 wells
assay_endpoint: viability at 24 h, 180 μM (%)
Give bare numbers, in %.

Reported viability at 24 h, 180 μM for CC1=C(/C=C/C(C)=C/C=C/C(C)=C\C(=O)OC2=C(O)[C@@H]([C@@H](O)CO)OC2=O)C(C)(C)CCC1 : what is it? 16

====

Assay: MTT cell viability (cytotoxicity) assay, A549
Format: cell-based
Conditions: human, A549 cells; Formula A1 50 μM, 24 hours, MTT, mean of 6 wells
assay_endpoint: viability at 24 h, 50 μM (%)
Answers are plain numbers, in %.

Item under review: CC1=C(/C=C/C(C)=C/C=C/C(C)=C\C(=O)OC2=C(O)[C@@H]([C@@H](O)CO)OC2=O)C(C)(C)CCC1 [Formula A1] . Reported viability at 24 h, 50 μM? 94

====

Test: MTT cell viability (cytotoxicity) assay, A549
Format: cell-based, human
Conditions: human, A549 cells; Formula A1 100 μM, 24 hours, MTT, mean of 6 wells
assay_endpoint: viability at 24 h, 100 μM (%)
One number for each entry, in %.

What measured viability at 24 h, 100 μM goes with CC1=C(/C=C/C(C)=C/C=C/C(C)=C\C(=O)OC2=C(O)[C@@H]([C@@H](O)CO)OC2=O)C(C)(C)CCC1 ? 100

====

Test: MTT cell viability (cytotoxicity) assay, PANC-1
Type: cell-based
Conditions: human, PANC-1 cells, 20 μM, mean of 6 wells
assay_endpoint: viability at 24 h, 20 μM (%)
One number for each entry, in %.

What value of viability at 24 h, 20 μM has been reported for the following molecule? CC1=C(/C=C/C(C)=C/C=C/C(C)=C\C(=O)OC2=C(O)[C@@H]([C@@H](O)CO)OC2=O)C(C)(C)CCC1 69

====

Test: MTT cell viability (cytotoxicity) assay, A549
Type: cell-based, human
Settings: human, A549 cells; Formula A1 500 μM, 24 hours, MTT, mean of 6 wells
assay_endpoint: viability at 24 h, 500 µM (%)
Answers are plain numbers, in %.

// query viability at 24 h, 500 µM value for entry CC1=C(/C=C/C(C)=C/C=C/C(C)=C\C(=O)OC2=C(O)[C@@H]([C@@H](O)CO)OC2=O)C(C)(C)CCC1 [Formula A1] 11

====

Assay: MTT cell viability (cytotoxicity) assay, A549
Type: cell-based, human
Settings: human, A549 cells; Formula A1 253 μM, 24 hours, MTT, mean of 6 wells
assay_endpoint: viability at 24 h, 253 μM
Quick note: unit goes after the number.

// lookup viability at 24 h, 253 μM for CC1=C(/C=C/C(C)=C/C=C/C(C)=C\C(=O)OC2=C(O)[C@@H]([C@@H](O)CO)OC2=O)C(C)(C)CCC1 28%

====

Assay: MTT cell viability (cytotoxicity) assay, Caco-2
Type: cell-based
Conditions: human, 200 μM, mean of 6 wells
assay_endpoint: viability at 24 h, 200 µM (%)
Answers are plain numbers, in %.

Would you kindly share the measured viability at 24 h, 200 µM for CC1=C(/C=C/C(C)=C/C=C/C(C)=C\C(=O)OC2=C(O)[C@@H]([C@@H](O)CO)OC2=O)C(C)(C)CCC1 ? 91

====

Test: MTT cell viability (cytotoxicity) assay, Caco-2
Type: cell-based
Settings: human, 300 μM, mean of 6 wells
assay_endpoint: viability at 24 h, 300 µM (%)
Numbers only, in %.

Fill blank: measured viability at 24 h, 300 µM of the compound CC1=C(/C=C/C(C)=C/C=C/C(C)=C\C(=O)OC2=C(O)[C@@H]([C@@H](O)CO)OC2=O)C(C)(C)CCC1 is ____. 58

====

Tested on: A549
Experiment: MTT cell viability (cytotoxicity) assay, A549
Assay type: cell-based, human
Details: Homo sapiens; A549 cell line, estimated from cell viability values with Quest Graph IC50 Calculator; read-out: IC50 (concentration that inhibited cell survival to 50%)
For each of the compounds below, state its pIC50.
Give bare numbers, as −log10 of the molar value.

compound	target_entity	assay_endpoint	readout_number
CC1=C(/C=C/C(C)=C/C=C/C(C)=C\C(=O)OC2=C(O)[C@@H]([C@@H](O)CO)OC2=O)C(C)(C)CCC1	A549	pIC50	3.70

Pending compound:
# value lookup — system A549, readout pIC50, item CC1=C(/C=C/C(C)=C/C=C/C(C)=C\C(=O)O)C(C)(C)CCC1 [13-cis retinoic acid, reference compound] 3.29
